- measurement target: 5-LOX (Rattus norvegicus, UniProt P12527)
- Sequence (P12527 whole entry): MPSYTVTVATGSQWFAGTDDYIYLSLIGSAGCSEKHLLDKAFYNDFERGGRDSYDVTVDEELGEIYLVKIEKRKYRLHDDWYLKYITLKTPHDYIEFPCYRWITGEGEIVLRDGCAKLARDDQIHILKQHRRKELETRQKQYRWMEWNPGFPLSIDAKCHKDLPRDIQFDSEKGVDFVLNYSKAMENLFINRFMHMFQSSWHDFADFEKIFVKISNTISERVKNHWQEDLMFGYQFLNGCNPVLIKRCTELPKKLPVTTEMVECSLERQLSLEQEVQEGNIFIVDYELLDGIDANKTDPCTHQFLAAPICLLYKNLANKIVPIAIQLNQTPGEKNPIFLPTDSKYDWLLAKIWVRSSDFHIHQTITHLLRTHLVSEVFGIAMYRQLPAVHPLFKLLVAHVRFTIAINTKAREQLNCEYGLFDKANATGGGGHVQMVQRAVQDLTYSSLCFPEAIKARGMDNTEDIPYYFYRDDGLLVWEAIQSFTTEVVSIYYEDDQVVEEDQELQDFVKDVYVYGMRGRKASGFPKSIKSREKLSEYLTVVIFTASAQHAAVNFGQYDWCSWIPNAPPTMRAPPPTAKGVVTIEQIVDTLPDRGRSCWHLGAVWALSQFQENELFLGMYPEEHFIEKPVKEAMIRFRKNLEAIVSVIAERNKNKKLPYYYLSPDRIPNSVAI
- method description: Inhibition of 5-LOX product synthesis
- Type: cell-based
- study conditions: PMNL, read-out: Inhibition at 5 μmol/L (%)
measurement name: inhibition at 5 µM (%)
Field format: number, assumed %, no unit text.

These recorded examples may help you get a feel for the data.
>  <compound>
CC(C)(C)c1cc(NC(=O)c2cc(-c3ccc(F)cc3)n(-c3ccc(S(N)(=O)=O)cc3)n2)cc(C(C)(C)C)c1O [4h]

>  <readout units>
%

>  <inhibition at 5 µM>
39.3

$$$$
>  <compound>
CC(C)(C)c1cc(NC(=O)c2cc(C3CCCCC3)n(-c3ccc(S(N)(=O)=O)cc3)n2)cc(C(C)(C)C)c1O [4j]

>  <readout units>
%

>  <inhibition at 5 µM>
69.2

$$$$
>  <compound>
CC(C)(C)c1cc(NC(=O)c2cc(-c3ccc4c(c3)OCCO4)n(-c3ccc(S(N)(=O)=O)cc3)n2)cc(C(C)(C)C)c1O [4f]

>  <readout units>
%

>  <inhibition at 5 µM>
50.7

$$$$

Give recorded inhibition at 5 µM. CC(C)(C)c1cc(NC(=O)c2cc(C3CCCCC3)n(-c3ccc(S(C)(=O)=O)cc3)n2)cc(C(C)(C)C)c1O [5j]
57.3
